B1: library; numbered along this chain (parent)
chain: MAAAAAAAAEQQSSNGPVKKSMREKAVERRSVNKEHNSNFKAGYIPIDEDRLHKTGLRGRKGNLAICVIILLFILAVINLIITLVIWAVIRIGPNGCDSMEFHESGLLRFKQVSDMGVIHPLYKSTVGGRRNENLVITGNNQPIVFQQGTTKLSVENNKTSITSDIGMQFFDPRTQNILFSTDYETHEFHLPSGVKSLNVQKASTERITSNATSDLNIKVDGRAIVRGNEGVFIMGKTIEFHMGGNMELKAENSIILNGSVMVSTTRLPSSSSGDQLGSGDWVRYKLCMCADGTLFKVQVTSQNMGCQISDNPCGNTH

Variants of: B1
procedure summary: SGCB cell-surface expression functional score (HA stain, bin4 vs bin1, normalised to synonymous) (log10 ratio); higher = more cell-surface SGCB (functional)
Assignment: determine reported SGCB cell-surface expression functional score (log10) for the given variants.
Numbers only.

[[record]]
variant_code = "S114W"
endpoint_value = -0.55

[[record]]
variant_code = "G106D"
endpoint_value = -0.65

[[record]]
variant_code = "I47M"
endpoint_value = 0.47

[[record]]
variant_code = "A26R"
endpoint_value = 0.15

[[record]]
variant_code = "I256T"
endpoint_value = 0.37


Below are 5 variants. Give each one its SGCB cell-surface expression functional score (log10).
1. D311R
2. T138K
3. N140Y
4. N211T
5. R30Y

(A)
1: 0.34; 2: -0.25; 3: -0.05; 4: -0.4; 5: -0.56

Okay, here is my list. What is SGCB cell-surface expression functional score (log10) for each of these?
1. I256H
2. F110C
3. R30L

(A)
0.01
-1.22
0.15
